# assayed target: cAMP-dependent protein kinase (PKA) (Homo sapiens, UniProt P22694+P17612+P22612)
# assay notes: In vitro inhibitory activity against protein kinase A
# Format: protein assay, unidentified
Below is a list of entries, each paired with its recorded log10 of IC50 value.
Hey, these are logged values: log10 of IC50, µM being the unit before logging.

These solved cases illustrate the format of a correct answer.
Oc1cc2c3ccc(O)c(O)c3n(CCCc3ccccc3)c2cc1O: -0.30
O=c1c2cc(O)c(O)cc2c2cc(O)c(O)cc2n1Cc1ccc(S(=O)(=O)c2ccccc2)cc1: 1.71
Oc1cc2nc(O)c3c(O)c(O)ccc3c2cc1O: 1.96
O=[N+]([O-])c1ccc(S(=O)(=O)n2c3cc(O)c(O)cc3c3ccc(O)c(O)c32)cc1: 2.23
O=c1c2c(O)c(O)ccc2c2cc(O)c(O)cc2n1Cc1ccc(Cl)c(Cl)c1: 2.61
Oc1cc2c3ccc(O)c(O)c3n(Cc3ccccc3)c2cc1O: 2.32

Entry `O=C(c1ccc(C(F)(F)F)cc1)n1c2cc(O)c(O)cc2c2ccc(O)c(O)c21` — recorded log10 of IC50 = 1.00

Entry `O=S(=O)(c1cc(Cl)ccc1Cl)n1c2cc(O)c(O)cc2c2ccc(O)c(O)c21` — recorded log10 of IC50 = 2.35

Entry `O=c1oc2c(O)c(O)cc3c(=O)oc4c(O)c(O)cc1c4c23` — recorded log10 of IC50 = -0.22

Entry `N#Cc1ccc(Cn2c3cc(O)c(O)cc3c3c(Br)cc(O)c(O)c32)cc1` — recorded log10 of IC50 = 0.82
